Recorded measurements of GI50, one per entry
# Tested on: RPMI-8226
# EXPERIMENT NOTES: NCI tumour cell line growth inhibition, 48 h
Activity calls are given as the source filed them. Cut-off read from the data, not from the text of the source: active = GI50 up to about 1.1 µM and inactive = higher.

>>> result("COC(=O)C(=Cc1cc(OC)c(OC)c(OC)c1-c1cc2c(cc1C(C)=O)OCO2)C(=O)OC")
"35.5 µM (inactive)"

Exercise: # lookup: GI50 of CCCCCCCCCCCCCC(=O)OCC1OC(OC)C(NC(=O)N(CCCl)N=O)C(O)C1O (stereo unspecified)
Key: 11.4 µM (inactive)

====

# System: CCRF-CEM
# EXPERIMENT NOTES: NCI tumour cell line growth inhibition, 48 h
Activity calls are given as the source filed them. Rule as the data show it: active = GI50 up to about 1.1 µM and inactive = higher.
MEASURED ATTRIBUTE: GI50

Check out these entries, answers already filled in.
>>> result("CCCN(CCCC(NC(C)=O)C(=O)NCc1ccccc1)C(=O)NCCCl (stereo unspecified)")
"> 100 µM (inactive)"
>>> result("SC1=NNC2(C(S)=N1)c1ccccc1-c1ccccc12")
"> 10 µM (inactive)"
>>> result("COc1cc(/C=N/n2c(Cc3ccc(Cl)cc3)n[nH]c2=O)cc(OC)c1OC")
"> 100 µM (inactive)"
>>> result("C=C1CC2(CCOc3ccc(Cl)cc32)OC1=O (stereo unspecified)")
"1.45 µM (inactive)"
>>> result("C=CCOc1ccc(C(/N=N\\c2ccc(Cl)cc2)=N/NC(=O)c2ccccc2)cc1OC")
"29.5 µM (inactive)"

Now, please, on to the next molecule.
Exercise: # lookup: GI50 of COc1cc2c(c3oc(-c4ccc5c(c4)OCO5)c(O)c(=O)c13)CCC(C)(C)O2
Key: 79.8 µM (inactive)

// provenance: ChEMBL document CHEMBL1201862
